Details: macaque (Macaca nemestrina), lymph node mononuclear cells (LNMC), sc, concentration in LNMCs at 192 h after injection, ATV-RTV-TFV DcNP, subcutaneous, primates; 192 h
Observed Property: concentration at 192 h (nM)
State the answer as a number, implicitly in nM.

What value of concentration at 192 h has been reported for the following compound? COC(=O)N[C@H](C(=O)N[C@@H](Cc1ccccc1)[C@@H](O)CN(Cc1ccc(-c2ccccn2)cc1)NC(=O)[C@@H](NC(=O)OC)C(C)(C)C)C(C)(C)C 90
